Biological target: HrcNHis (Pseudomonas syringae group genomosp. 3, UniProt Q887B5)
Construct: full-length, N-terminal His6 tag (pETNdeM-11), expressed in E. coli
Sequence (Q887B5 whole entry): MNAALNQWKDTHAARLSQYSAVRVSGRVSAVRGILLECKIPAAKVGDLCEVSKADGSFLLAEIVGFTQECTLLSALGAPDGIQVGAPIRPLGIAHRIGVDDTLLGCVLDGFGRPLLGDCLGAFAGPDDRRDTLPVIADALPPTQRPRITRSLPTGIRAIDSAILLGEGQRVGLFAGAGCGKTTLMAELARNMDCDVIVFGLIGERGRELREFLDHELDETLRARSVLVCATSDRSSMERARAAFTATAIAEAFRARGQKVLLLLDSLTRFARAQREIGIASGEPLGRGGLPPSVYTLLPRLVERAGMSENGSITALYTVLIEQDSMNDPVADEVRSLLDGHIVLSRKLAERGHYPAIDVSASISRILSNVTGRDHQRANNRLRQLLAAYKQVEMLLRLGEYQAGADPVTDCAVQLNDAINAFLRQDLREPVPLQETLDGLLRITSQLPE
Assay: pyruvate kinase/lactate dehydrogenase-linked ATPase assay
assay_readout: pIC50
Friendly reminder that pIC50 comes from taking -log10 of the concentration in mol/L.

Task: Data request, read-out pIC50, for Nc1nc2c(ncn2[C@@H]2O[C@@H]3COP(=O)(O)O[C@H]4[C@@H](O)[C@H](n5cnc6c(=O)[nH]c(N)nc65)O[C@@H]4COP(=O)(O)O[C@H]3[C@H]2O)c(=O)[nH]1 [cdG]
Output: 4.60

* * *

Biological target: FliIHis
Construct: gene fliI
Experiment: pyruvate kinase/lactate dehydrogenase-linked ATPase assay
Type: biochemical, Pseudomonas fluorescens
Settings: 1 mM ATP, 2 mM MgCl2, pH 8.0; allosteric
assay_readout: pIC50
Friendly reminder that pIC50 comes from taking -log10 of the concentration in mol/L.

Task: Data request, read-out pIC50, for Nc1nc2c(ncn2[C@@H]2O[C@@H]3COP(=O)(O)O[C@H]4[C@@H](O)[C@H](n5cnc6c(=O)[nH]c(N)nc65)O[C@@H]4COP(=O)(O)O[C@H]3[C@H]2O)c(=O)[nH]1 [cdG]
Output: 4.44
